The reported measurements were obtained from ChEMBL document CHEMBL1131476.

target: Inosine-5'-monophosphate dehydrogenase 2 (Homo sapiens); test: Inhibitory activity against human Inosine-5'-monophosphate dehydrogenase 2 (IMPDH type II isoform)
READOUT NAME: pKi
To interpret pKi, take it as minus log10 of a concentration measured in moles per litre.

## Task Report pKi for COc1c(C)c2c(c(O)c1C/C=C(\C)CCCOP(=O)(O)CP(=O)(O)OC[C@@H]1OC(n3cnc4c(N)ncnc43)[C@@H](O)[C@H]1O)C(=O)OC2 (stereo partly specified) please.
## Result 6.52
